- Test system: biotinyl-Leu-oxazolone
- measurement.protocol: self-aminoacylation, catalytic enhancement (BLO) (fold over background); higher = more active; k-Seq, kA / k0A0; sequences stand for … in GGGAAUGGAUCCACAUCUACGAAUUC…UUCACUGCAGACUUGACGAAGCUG
Variants at the floor of the assay were thinned out.
measure: self-aminoacylation
Numbers only.

{"query.sequence": "AUUACCCUGGUCUUCGAGUCA [Fam2.1 aminoacylation ribozyme variant]", "result.number": 0.903}

Can you give me self-aminoacylation for all of these, one by one?
1. CUACUUCAAACAAUCCGGCUG [Fam1A.1 aminoacylation ribozyme variant]
2. CCACACUUCAAGGAAUAGGUC [Fam1B.1 aminoacylation ribozyme variant]
3. ACGUUUGCUCAUAGUCGCAAG [Fam3.1 aminoacylation ribozyme variant]

1: 1.44; 2: 0.478; 3: 2.49

Batch lookup, self-aminoacylation per entry.
1. AUUCACCUAGGUCAUCGGGAU [Fam2.2 aminoacylation ribozyme variant]
2. AAGUUUGCUAAUAGUCUCCAG [Fam3.1 aminoacylation ribozyme variant]

1. 9.22
2. 0.909

* * *

- Test system: biotinyl-Phe-oxazolone
- measurement.protocol: self-aminoacylation, catalytic enhancement (BFO) (fold over background); higher = more active; k-Seq, kA / k0A0; sequences stand for … in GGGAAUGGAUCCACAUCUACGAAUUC…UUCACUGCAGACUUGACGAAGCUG
Variants at the floor of the assay were thinned out.
measure: self-aminoacylation
Give bare numbers.

Before answering, review these 5 worked examples.
{"query.sequence": "AUUCACCUCGGUCAGCGGGUG [Fam2.2 aminoacylation ribozyme variant]", "self-aminoacylation": 28.3}
{"query.sequence": "AAGUUUGCUAAUCGGCGCAAG [Fam3.1 aminoacylation ribozyme variant]", "self-aminoacylation": 2.32}
{"query.sequence": "CUACUUCAAACUAUCGGUCUU [Fam1A.1 aminoacylation ribozyme variant]", "self-aminoacylation": 0.957}
{"query.sequence": "CCACACUUCAAGCAAUCGACC [Fam1B.1 aminoacylation ribozyme variant]", "self-aminoacylation": 1.25}
{"query.sequence": "CUACUUCGAACCAUCGGUCUG [Fam1A.1 aminoacylation ribozyme variant]", "self-aminoacylation": 0.458}

Parameters: items (list). Returns: self-aminoacylation for each item.
1. AAGUUUGCUAAAUGUCGCAAG [Fam3.1 aminoacylation ribozyme variant]
2. UUUCACCUAGGUCAUCGUGUG [Fam2.2 aminoacylation ribozyme variant]
3. AAGUUCGCAAAUAGUCGCAAG [Fam3.1 aminoacylation ribozyme variant]
4. AUUCACCUGGGUGAUCGGGUG [Fam2.2 aminoacylation ribozyme variant]
5. UCACCCUUCAAGCAAUCGGUC [Fam1B.1 aminoacylation ribozyme variant]
6. AUUCACCUAGGUCAUCGGCUU [Fam2.2 aminoacylation ribozyme variant]

1: 0.96; 2: 4.69; 3: 3.4; 4: 24.1; 5: 10.5; 6: 6.3

* * *

- Tested on: biotinyl-Leu-oxazolone
- measurement.protocol: self-aminoacylation, catalytic enhancement (BLO) (fold over background); higher = more active; k-Seq, kA / k0A0; sequences stand for … in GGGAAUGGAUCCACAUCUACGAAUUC…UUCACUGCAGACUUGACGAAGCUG
Variants at the floor of the assay were thinned out.
measure: self-aminoacylation
Answers are plain numbers.

{"query.sequence": "CGACUUCAAACAAUCGGUCUC [Fam1A.1 aminoacylation ribozyme variant]", "self-aminoacylation": 1.99}
{"query.sequence": "AUUCACUUAGGUCAUCGGUUG [Fam2.2 aminoacylation ribozyme variant]", "self-aminoacylation": 0.901}
{"query.sequence": "AUUCACCUAGGACAUCGGGUA [Fam2.2 aminoacylation ribozyme variant]", "self-aminoacylation": 2.63}
{"query.sequence": "AAGUGUUCUAAUAGUCGCAAG [Fam3.1 aminoacylation ribozyme variant]", "self-aminoacylation": 1.64}

Would you mind listing self-aminoacylation for each of the following sequences?
1. UUUCACCUAGGUCAUCGGGUU [Fam2.2 aminoacylation ribozyme variant]
2. AAGUUUGGUAAUAGUCGCAAA [Fam3.1 aminoacylation ribozyme variant]

1. 12.6
2. 1.44
